Data credit: patent US10336702B2

Molecular target: Akt2 (Homo sapiens, UniProt P31751)
Construct: unspecified tag, removed (detagged) (cleaved yes); purchased SignalChem and Proteros (Akt2); Merck Millipore (PDK1) 14-452 (PDK1); none given for Akt2
Sequence (P31751 whole entry): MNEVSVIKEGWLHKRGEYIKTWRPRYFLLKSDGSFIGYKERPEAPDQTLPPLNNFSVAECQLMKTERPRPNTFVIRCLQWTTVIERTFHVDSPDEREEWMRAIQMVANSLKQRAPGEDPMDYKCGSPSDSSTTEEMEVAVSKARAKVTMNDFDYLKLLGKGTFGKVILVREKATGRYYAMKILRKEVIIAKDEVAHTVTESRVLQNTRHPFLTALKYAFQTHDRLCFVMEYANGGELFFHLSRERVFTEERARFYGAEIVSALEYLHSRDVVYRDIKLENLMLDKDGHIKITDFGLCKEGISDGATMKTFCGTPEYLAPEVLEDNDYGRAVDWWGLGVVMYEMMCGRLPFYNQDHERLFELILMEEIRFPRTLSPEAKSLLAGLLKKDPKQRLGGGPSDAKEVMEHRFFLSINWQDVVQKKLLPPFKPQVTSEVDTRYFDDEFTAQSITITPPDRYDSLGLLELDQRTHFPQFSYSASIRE
Test: Akt activation assay (PDK1-mediated activation, LANCE Ultra crosstide TR-FRET), Akt2
Type: biochemical
Conditions: read-out: Biological Assay 1 IC50 (nM) Akt2
Quick list: IC50 per entry.
Only the number, expressed in nM, is required.

CC(C)(N)c1ccc(-c2ncc(NC(=O)C[C@H]3CC[C@H](NC(=O)C4CC4)CC3)cc2-c2ccsc2)cc1 [Example 26]; 12000
CC(C)(N)c1ccc(-c2ncc(NC(=O)C[C@H]3CC[C@H](N4CCCC4=O)CC3)cc2-c2ccccc2)cc1 [Example 24]; 10000

Now let's try a different one.
Quick one: IC50 for NC1(c2ccc(-c3cnc(NC(=O)C[C@H]4CC[C@H](N5CCOC5=O)CC4)cc3-c3ccsc3)cc2)CCC1 [Example 70] ?
830
